Target: T1, human CD19 (human, UniProt P15391 20-291, biotinylated in the Biacore assay of Table 11)
T1 construct: also called isolated CD19; Human CD19 Protein
T1 sequence (looked up): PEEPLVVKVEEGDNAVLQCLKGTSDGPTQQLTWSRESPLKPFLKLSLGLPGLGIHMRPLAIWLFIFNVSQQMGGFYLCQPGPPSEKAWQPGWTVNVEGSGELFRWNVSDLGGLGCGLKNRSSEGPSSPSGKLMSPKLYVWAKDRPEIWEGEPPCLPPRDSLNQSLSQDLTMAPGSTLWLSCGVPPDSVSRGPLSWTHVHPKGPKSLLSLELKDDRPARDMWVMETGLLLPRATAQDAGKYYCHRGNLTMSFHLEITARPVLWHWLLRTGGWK
Test: SPR Biacore 8K, captured biotinylated CD19, scFv with disulfide bond as analyte
Give Kd for every item shown.
Could you give me the number in nM? Just the number is fine.

## Input Give the measured Kd of CNG-CD19-103 VL-VH scFv with disulfide bond (scFv) DIVMTQTPLSLSVTPGQPASISCKSSQSLETATGTTYLNWYLQKPGQSPQLLIYRVSRRFSGVPDRFSGSGSGTDFTLKISRVEAEDVGVYYCLQLLEDPYSFGCGTKLEIKGGGGSGGGGSGGGGSQVQLVQSGAEVKKPGASVKVSCKASGYTFTDYIMHWVRQAPGQCLEWMGYINPYNDGSKYTEKFQGRVTMTSDTSISTAYMELSRLRSDDTAVYYCARGTYYYGPQLFDYWGQGTTVTVSS .
## Output 0.0178

## Input Give the measured Kd of CNG-CD19-101 VL-VH scFv with disulfide bond (scFv, Cys at position 44 of VH and 100 of VL already in the entry; also called scFv with Cys substitutions) scFv: DIVMTQTPLSLSVTPGQPASISCKSSQSLETTTGTTYLNWYLQKPGQSPQLLIYRASKRFSGVPDRFSGSGSGTDFTLKISRVEAEDVGVYYCLQLLEDPYTFGCGTKLEIKGGGGSGGGGSGGGGSQVQLVQSGAEVKKPGASVKVSCKASGYDFTDYIMHWVRQAPGQCLEWMGYINPYNDGSKYTDKFQERVTMTSDTSISTAYMELSRLRSDDTAVYYCARGTYYYGPELFDYWGQGTTVTVSS .
## Output 0.0139

## Input Give the measured Kd of CNG-CD19-707 VL-VH scFv with disulfide bond (scFv) EIVLTQSPATLSLSPGERATLSCSASSSVGYMHWYQQKPGQAPRLLIYDTSKLASGIPARFSGSGSGTDFTLTISSLEPEDFAVYYCFQGSVYPFTFGCGTKLEIKGGGGSGGGGSGGGGSQVQLQESGPGLVKPSQTLSLTCTVSGGSISTSTMGVGWIRQHPGKCLEWIGFIWWDDDKRYNPNLKSRVTMSVDTSKNQFSLKLSSVTAADTAVYYCARMELWSYYFDPWGQGTLVTVSS .
## Output 0.0117

## Input Give the measured Kd of CNG-CD19-710 VL-VH scFv with disulfide bond (scFv) EIVLTQSPATLSLSPGERATLSCSASSSFSYMHWYQQKPGQAPRLLIYDTSKLASGIPARFSGSGSGTDFTLTISSLEPEDFAVYYCFQGSVYPFTFGCGTKLEIKGGGGSGGGGSGGGGSQVQLQESGPGLVKPSQTLSLTCTVSGVSISTSSMGVGWIRQHPGKCLEWIGHAWWDDDKRYNPALKSRVTISVDTSKNQFSLKLSSVTAADTAVYYCARMELWSYYFDPWGQGTLVTVSS .
## Output 0.0213

## Input Give the measured Kd of CNG-CD19-701 VL-VH scFv with disulfide bond (scFv) EIVLTQSPATLSLSPGERATLSCSASSSVGYMHWYQQKPGQAPRLLIYDTSKLASGIPARFSGSGSGTDFTLTISSLEPEDFAVYYCFQGSVYPFTFGCGTKLEIKGGGGSGGGGSGGGGSQVQLQESGPGLVKPSQTLSLTCTVSGGSISTSTMGVGWIRQHPGKCLEWIGFIWWDDDKRYNPNLKSRVTMSVDTSKNQFSLKLSSVTAADTAVYYCARMELWSYYFDYWGQGTLVTVSS .
## Output 0.0141
